- measurement-protocol: yeast display, Sf9 membrane polyspecificity reagent, FACS + sequencing; frameworks hold sequencing errors
parameter: polyreactivity (PSR sort gate)

Use these answered entries as a reference point.
biosequence	test-value
QVQLVESGGGLVQAGGSLRLSCAASGFTFSYYAMGWYRQAPGKERELVAAISWNGGSTYYADSVKGRFTISRDNAKNTVYLQMNCLKPEDTAVYYCAADSLLYYYDTGYEYWGQGTQVTVSS	high polyreactivity
QVQLVESGGGLVQAGGSLRLSCAASGIIFDPYAMGWYRQAPGKERELVADIDNASSTYYADSVKGRFTISRDNAKNTVYLQMNSLKPEDTAVYYCTADLWYGGEYWGQGTQVTVSS	low polyreactivity
QVQLEESGGGLVQAGGSLRLSCAASGSIFSRNAMGLYRQAPGTERELVAVITRSGSTNYADSVKGRFTISRDNAKNTVYLQKKSLTPQDTAVYYCNADQDAYYLVSIATYDYWGQGTQVTVSS	low polyreactivity
QVQLVESGGGLVQAGGSLRLSCDASGSIFYYNAMGWYRQAPGKERELVAAISVSGGSTYYADSVKGRFTISRDNAKNTVYLQMNSLKPEDTAVYYCAAEWLYYYWLPGRADYLEYDYWGQGTQVTVSS	low polyreactivity
QVQLVESGGGLVQAGGSLRLSCAASGSIFDPYAMGWYRQAPGKERELVAAIRWGGGTTYYADSVKGRFTISRDNSKITVSLQMNSLKPEDTAVYYCAASWDWYDYWYDYWGQGTQVTVSS	high polyreactivity
QVQLVESGGGLVQAGGSLRLSCAASGRTFVWNVMGWYRKAPGKEREFVAAISGGSTYYADSVKGRFTISRDNAKNTVYLQMNRLKPEDTAVNYCAAASKLHPRYEYWGQGTQVTVSS	low polyreactivity

[in] Suppose we examine the sequence `QDQLVESGGGLVQAGGSLRLSCAASGFTFGSYAMGWYRQAHGKERELVAAITASGGSTYYADSVKGRFTISRDNAKNTVYLQMNSLKPEDTAFYYCATRRYDGVAAFRMYYWGQGTQVTVSS` ; what polyreactivity (PSR sort gate) value has been reported?
[out] high polyreactivity

[in] Suppose we examine the sequence `QVHLVESGGGLVQAGGSLRLSCAASGFIFLHYAMGWYRQAPGKERELVAAINKSGGSTYYADSVKGRFTSSRDNAMYTDYLQMNSLKPEDTAVYYCNAVYYWFIGDYWGQGTQVTVSS` ; what polyreactivity (PSR sort gate) value has been reported?
[out] high polyreactivity

[in] Suppose we examine the sequence `QVQLVESGGGLVQAGGSLRLSCAASGFTFFYYAIRWYRQAPGKEREVVAAISSNGGRTYYADSVKGRFTISRDNAKNTVYLQMYSLKPEDTAVYYCTALRYVVYFDDDYWGQGTQVTVSS` ; what polyreactivity (PSR sort gate) value has been reported?
[out] high polyreactivity

[in] Suppose we examine the sequence `QVQLVESGGGLVQAGGSLRLSCAASVRIFQRNVMGWYRQAPGKEWELVATINWSGASTYYADSVKGRFTISRDNAKNTVYLQMNSLTPEDTAVYYCAKDGHYPLVYLAFDYWGQGTQVTVSS` ; what polyreactivity (PSR sort gate) value has been reported?
[out] low polyreactivity

[in] Suppose we examine the sequence `QFQLVESGGGLVQAGGSLRLSCAASGSTIIKNAMGWYRQAPGKERELVAAINWSVTRTYYADSVKGRFTISRDNAKNTVYLQMNSLKPEDTAVYYCAKVIARFVRYDYWGQGTQVTVSS` ; what polyreactivity (PSR sort gate) value has been reported?
[out] high polyreactivity

Reference source: the nanobody polyreactivity screen of Harvey et al. (2022)
